Tested on: HeLa Kyoto
assayComment: melting temperature (median over replicates), in situ; higher = more thermally stable
testConditions: cell cycle stage: G1/S
propertyLabel: melting temperature (°C)
API: value field is a number in °C; no unit string.

Sample records with melting temperature:
{"macromoleculeSequence": "MLGGSLGSRLLRGVGGSHGRFGARGVREGGAAMAAGESMAQRMVWVDLEMTGLDIEKDQIIEMACLITDSDLNILAEGPNLIIKQPDELLDSMSDWCKEHHGKSGLTKAVKESTITLQQAEYEFLSFVRQQTPPGLCPLAGNSVHEDKKFLDKYMPQFMKHLHYRIIDVSTVKELCRRWYPEEYEFAPKKAASHRALDDISESIKELQFYRNNIFKKKIDEKKRKIIENGENEKTVS [REXO2]", "measurement": 56.8}
{"macromoleculeSequence": "MADDFGFFSSSESGAPEAAEEDPAAAFLAQQESEIAGIENDEGFGAPAGSHAAPAQPGPTSGAGSEDMGTTVNGDVFQEANGPADGYAAIAQADRLTQEPESIRKWREEQRKRLQELDAASKVTEQEWREKAKKDLEEWNQRQSEQVEKNKINNRIADKAFYQQPDADIIGYVASEEAFVKESKEETPGTEWEKVAQLCDFNPKSSKQCKDVSRLRSVLMSLKQTPLSR [CLTB]", "measurement": 56.3}
{"macromoleculeSequence": "MAGAGPTMLLREENGCCSRRQSSSSAGDSDGEREDSAAERARQQLEALLNKTMRIRMTDGRTLVGCFLCTDRDCNVILGSAQEFLKPSDSFSAGEPRVLGLAMVPGHHIVSIEVQRESLTGPPYL [NAA38]", "measurement": 52.1}

Next sequence, melting temperature to be filled in.
Entry under review: MAQSRDGGNPFAEPSELDNPFQDPAVIQHRPSRQYATLDVYNPFETREPPPAYEPPAPAPLPPPSAPSLQPSRKLSPTEPKNYGSYSTQASAAAATAELLKKQEELNRKAEELDRRERELQHAALGGTATRQNNWPPLPSFCPVQPCFFQDISMEIPQEFQKTVSTMYYLWMCSTLALLLNFLACLASFCVETNNGAGFGLSILWVLLFTPCSFVCWYRPMYKAFRSDSSFNFFVFFFIFFVQDVLFVLQAIGIPGWGFSGWISALVVPKGNTAVSVLMLLVALLFTGIAVLGIVMLKRIHSLYRRTGASFQKAQQEFAAGVFSNPAVRTAAANAAAGAAENAFRAP [SCAMP3] . Reported melting temperature?
58.2

====

Reported solubility in G1/S (log2) values for the following sequences.
System: HeLa Kyoto
assayComment: solubility in G1/S (NP-40 vs SDS abundance) (log2 ratio); higher = more soluble
testConditions: cell cycle stage: G1/S
API note: the answer field is a bare number with no unit suffix.

{"macromoleculeSequence": "MAALTLRGVRELLKRVDLATVPRRHRYKKKWAATEPKFPAVRLALQNFDMTYSVQFGDLWPSIRVSLLSEQKYGALVNNFAAWDHVSAKLEQLSAKDFVNEAISHWELQSEGGQSAAPSPASWACSPNLRCFTFDRGDISRFPPARPGSLGVMEYYLMDAASLLPVLALGLQPGDIVLDLCAAPGGKTLALLQTGCCRNLAANDLSPSRIARLQKILHSYVPEEIRDGNQVRVTSWDGRKWGELEGDTYDRVLVDVPCTTDRHSLHEEENNIFKRSRKKERQILPVLQVQLLAAGLLATKPGGHVVYSTCSLSHLQNEYVVQGAIELLANQYSIQVQVEDLTHFRRVFMDTFCFFSSCQVGELVIPNLMANFGPMYFCKMRRLT [NSUN4]", "target": "HeLa Kyoto", "solubility in G1/S (log2)": -0.195}

Next sequence, solubility in G1/S (log2) to be filled in.
Entry under review: MLVSGRRRLLTVLLQAQKWPFQPSRDMRLVQFRAPHLVGPHLGLETGNGGGVINLNAFDPTLPKTMTQFLEQGEATLSVARRALAAQLPVLPRSEVTFLAPVTRPDKVVCVGMNYVDHCKEQNVPVPKEPIIFSKFASSIVGPYDEVVLPPQSQEVDWEVELAVVIGKKGKHIKATDAMAHVAGFTVAHDVSARDWQMRRNGKQWLLGKTFDTFCPLGPALVTKDSVADPHNLKICCRVNGEVVQSGNTNQMVFKTEDLIAWVSQFVTFYPGDVILTGTPPGVGVFRKPPVFLKKGDEVQCEIEELGVIINKVV [FAHD2A] . Reported solubility in G1/S (log2)?
0.253

Values were extracted from the supplement of paper PMC5998384.
